tested on: αSYN fibrils (Homo sapiens, UniProt P37840)
experiment: [3H]PiB competition binding assay on αSYN fibrils
recorded conditions: [3H]PiB competition, αSYN fibrils; mean Ki ± SEM, two data points (9a, 14a, 15a, 17a, 18a, 43, 44, MFSB three; 12a single); read-out: Ki
pKi: −log10 of the molar value.
Use 7 as the dividing line for pKi, with the line itself on the fulfilled side and lower values as not fulfilled.

>>> assigned_class("Fc1ccc2nc(C=Cc3ccc(N4CCCCC4)cc3)sc2c1 (mixture of isomers) [9a]")
"fulfilled"
>>> assigned_class("Fc1ccc2nc(C=CC=Cc3ccc(N4CCCCC4)cc3)sc2c1 [compound 43]")
"not fulfilled"
>>> assigned_class("Fc1cccc2nc(C=Cc3ccc(N4CCCCC4)cc3)sc12 [12a]")
"not fulfilled"
>>> assigned_class("Fc1ccc2nc(C=Cc3ccc(N4CCOCC4)cc3)sc2c1 [compound 45]")
"fulfilled"

These entries and their values trace back to patent EP4438597A1.
